Every entry's value here was drawn from ChEMBL document CHEMBL4152252.

Assay: Octanol/water partition co-efficient, log P of the compound by HPLC based method
Assay type: physicochemical
logP listing for selected compounds.
Number only, no unit.

A selection of reference data follows.
CCCCn1cc(C(=O)NCc2ccc(F)cc2)c(=O)c2c(F)cc(N3CCOCC3)cc21	3.41
CCCCn1cc(C(=O)NCc2ccccc2)c(=O)c2cc(OC)c(N3CCOCC3)cc21	3.73
O=C(NCc1ccccc1)c1cn(CCCOCc2ccccc2)c2cc(N3CCOCC3)c(F)cc2c1=O	3.9

[Q] # query: logP of entry O=C(NCc1ccccc1)c1cn(CCCO)c2cc(N3CCOCC3)c(F)cc2c1=O
[A] 3.04

[Q] And CCCCn1cc(C(=O)NCc2ccccc2)c(=O)c2ccc(N3CCOCC3)c(F)c21 ?
[A] 4.09

[Q] And CCCCn1cc(C(=O)NCc2ccccc2)c(=O)c2cc(C(F)(F)F)c(N3CCOCC3)cc21 ?
[A] 4.18

[Q] And CCCCn1cc(C(=O)NCc2ccccc2)c(=O)c2cc(F)c(N3CCOCC3)c(F)c21 ?
[A] 4.57

[Q] And CCCCn1cc(C(=O)NCc2ccccc2)c(=O)c2c(F)cc(N3CCOCC3)cc21 ?
[A] 3.36

[Q] And CCCCn1cc(C(=O)NCc2ccccc2)c(=O)c2c(F)c(F)c(N3CCOCC3)cc21 ?
[A] 3.97

[Q] And CCCCn1cc(C(=O)NCc2ccccc2)c(=O)c2ccc(N3CCOCC3)cc21 ?
[A] 3.51

[Q] And O=C(NCc1ccccc1)c1cn(CCCF)c2cc(N3CCOCC3)c(F)cc2c1=O ?
[A] 3.34

[Q] And CCCCn1cc(C(=O)NCc2ccc(F)cc2)c(=O)c2cc(F)c(N3CCOCC3)cc21 ?
[A] 4.13
